Assay: SRA737 plasma and tumor concentrations in HT29 xenograft model
Assay type: in vivo
Details: mouse, tumor, oral; HT29 xenograft; Dose 12.5 mg/kg; read-out: Tumor (24 h)
endpoint-name: concentration at 24 h (µM)
Numeric answer only, unit µM assumed.

Input: Give concentration at 24 h for the following compound: N#Cc1cnc(Nc2cc(NCC3CNCCO3)c(C(F)(F)F)cn2)cn1 (stereo not shown)
Output: 3.97

---

Experiment: SRA737 plasma and tumor concentrations in HT29 xenograft model
Type: in vivo
Settings: mouse, tumor, oral; HT29 xenograft; Dose 3.125 mg/kg; read-out: Tumor (24 h)
endpoint-name: concentration at 24 h (nM)
Numeric answer only, unit nM assumed.

Input: Give concentration at 24 h for the following compound: N#Cc1cnc(Nc2cc(NCC3CNCCO3)c(C(F)(F)F)cn2)cn1 (stereo not shown) [SRA737]
Output: 646
